Assign solubility at 24 h to each entry below.
experiment: physchem; settings: pH 6.8, aqueous buffer, kinetic from dmso stock, Solubility (pH 6.8)
Answers are plain numbers, in µg/mL.

1. CO[C@@H]1CN(c2cccc(-c3cc(C)ccc3OCc3ccc4c(c3C)CCN(C3CCOCC3)CC4)n2)CC[C@@H]1C(=O)O: 91
2. CO[C@@H]1CN(c2nc(-c3cccc(C)c3OCc3cc(F)c4c(c3)CCN(C3CCOCC3)CC4)cs2)CC[C@@H]1C(=O)O: 107

Asked: What does the data say about its solubility at 24 h? Entry: Cc1nccnc1C(C)N1CCc2c(ccc(COc3ccccc3-c3cccc(N4CC[C@@]5(C(=O)O)C[C@H]5C4)n3)c2C)C1 (stereo partly drawn)
Given back: 23.8

* * *

test: physchem; conditions: pH 4.5, aqueous buffer, kinetic from dmso stock, Solubility (pH 4.5)
Is solubility at 24 h at least 0.07 mg/mL? Then YES. If not, NO.

Consider the following illustrative entries.
1. Cc1cc(COc2c(C)cccc2-c2cccc(N3CC[C@@]4(C(=O)O)C[C@H]4C3)n2)cc2c1CN(C1CCOCC1)CC2: YES
2. Cc1ccc(OCc2cc(C)c3c(c2C)CCN(C2CCOCC2)C3)c(-c2csc(N3CC[C@@]4(C(=O)O)C[C@H]4C3)n2)c1: NO
3. Cc1cccc(-c2cccc(N3C[C@@H]4C[C@]4(C(=O)O)C3)n2)c1OCc1ccc2c(c1C)CCN(C1CCOCC1)CC2: YES
4. Cc1cc(COc2c(C)cccc2-c2csc(N3C[C@H]4C[C@@]4(C(=O)O)[C@@H]3C)n2)cc2c1CN(C1COC1)CC2: NO
5. CO[C@@H]1CN(c2nc(-c3cc(F)cc(C)c3OCc3ccc4c(c3C)CCN(C3CCOCC3)CC4)cs2)CC[C@@H]1C(=O)O: NO
6. CCO[C@@H]1CN(c2nc(-c3cc(C)ccc3OCc3cc(C)c4c(c3F)CCN(C3CCOCC3)C4)cs2)CC[C@@H]1C(=O)O: NO
7. CO[C@H]1CN(c2nc(-c3cc(C)ccc3OCc3cc(C)c4c(c3)CCN(C3CCOCC3)C4)cs2)CC[C@H]1C(=O)O: NO
8. CO[C@H]1CN(c2nc(-c3cccc(Cl)c3OCc3ccc4c(c3)[C@@H](C)CN(C3CCOCC3)CC4)cs2)CC[C@H]1C(=O)O: NO

Asked: Evaluate Cc1cccc(-c2csc(N3CC[C@@]4(C(=O)O)C[C@H]4C3)n2)c1OCc1ccc2c(c1C)CCN(C1CCOC1)CC2 (stereo partly shown) : solubility at 24 h at minimum 0.07 mg/mL?
Given back: NO

Asked: Evaluate `CO[C@H]1CN(c2nc(-c3cccc(Cl)c3OCc3ccc4c(c3)[C@H](C)CN(C3COC3)CC4)cs2)CC[C@H]1C(=O)O` : solubility at 24 h at minimum 0.07 mg/mL?
Given back: NO

Asked: Evaluate `Cc1cc(COc2c(C)cccc2-c2cccc(N3C[C@@H]4C[C@]4(C(=O)O)C3)n2)cc2c1CN(C1CCOCC1)CC2` : solubility at 24 h at minimum 0.07 mg/mL?
Given back: YES

Asked: Evaluate `Cc1c(COc2ccccc2-c2cccc(N3CC[C@@]4(C(=O)O)C[C@H]4C3)n2)ccc2c1CCNC2` : solubility at 24 h at minimum 0.07 mg/mL?
Given back: YES

* * *

Assign Metabolic stability (Qh %), % hepatic blood flow to each entry below.
experiment: Human liver microsome (HLM) metabolic stability assay; type: in vitro ADME; settings: human liver microsomes

1) CO[C@H]1CN(c2cccc(-c3cc(C)ccc3OCc3ccc4c(c3C)CCN(C3CCOCC3)C4)n2)CC[C@H]1C(=O)O: <24%
2) COC[C@H]1N(c2cccc(-c3cccc(C)c3OCc3cc(C)c4c(c3C)CCN(C3CCOCC3)C4)n2)C[C@@H]2C[C@@]21C(=O)O: <24%

// each listed compound needs a value for Metabolic stability (Qh %), % hepatic blood flow
1. Cc1cccc(-c2csc(N3C[C@@H]4C[C@]4(C(=O)O)C3)n2)c1OCc1ccc2c(c1)CCN(C1CCOCC1)C2
2. CCO[C@@H]1CN(c2cccc(-c3cccc(Cl)c3OCc3cc(C)c4c(c3)CCN(C3CCOCC3)C4)n2)CC[C@@H]1C(=O)O
3. Cc1cc(COc2c(C)cccc2-c2csc(N3CC[C@@]4(C(=O)O)C[C@H]4C3)n2)cc2c1CN(C1CCC(F)(F)CC1)CC2
4. CO[C@@H]1CN(c2cccc(-c3cc(C)ccc3OCc3cc(C)c4c(c3)CCN(C3CCOCC3)C4)n2)CC[C@@H]1C(=O)O

Given back:
["<24%", "44%", "79%", "<24%"]

* * *

target: human soluble guanylate cyclase alpha 1 and beta 1 subunits (sGC) (Homo sapiens (Human), UniProt Q02108+Q02153); assay: sGC cellular activator assay (cGMP, HTRF), in the presence and absence of 50% human serum; details: CHO cells stably expressing human sGC alpha 1/beta 1, preincubated with 40 microM ODQ; cGMP by HTRF; Table 2 does not state whether with or without 50% human serum
Sequence (Q02108 whole entry partner): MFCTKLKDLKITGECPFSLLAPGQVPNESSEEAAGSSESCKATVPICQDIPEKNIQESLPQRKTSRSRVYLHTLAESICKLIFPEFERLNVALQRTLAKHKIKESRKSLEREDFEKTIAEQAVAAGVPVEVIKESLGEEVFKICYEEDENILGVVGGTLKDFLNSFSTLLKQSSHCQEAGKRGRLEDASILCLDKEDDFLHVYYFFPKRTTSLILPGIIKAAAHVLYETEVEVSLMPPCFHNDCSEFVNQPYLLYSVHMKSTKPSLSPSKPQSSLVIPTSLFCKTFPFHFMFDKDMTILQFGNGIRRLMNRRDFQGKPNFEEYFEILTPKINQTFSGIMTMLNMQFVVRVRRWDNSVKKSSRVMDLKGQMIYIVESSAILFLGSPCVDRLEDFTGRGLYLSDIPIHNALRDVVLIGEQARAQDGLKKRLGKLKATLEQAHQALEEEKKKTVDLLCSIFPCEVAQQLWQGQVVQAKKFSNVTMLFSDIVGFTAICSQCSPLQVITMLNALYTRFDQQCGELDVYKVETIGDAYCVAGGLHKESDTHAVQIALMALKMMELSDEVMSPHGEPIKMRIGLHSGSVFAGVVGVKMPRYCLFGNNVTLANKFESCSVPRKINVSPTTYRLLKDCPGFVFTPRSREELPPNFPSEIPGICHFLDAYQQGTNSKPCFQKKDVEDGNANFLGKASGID
Sequence (Q02153 whole entry): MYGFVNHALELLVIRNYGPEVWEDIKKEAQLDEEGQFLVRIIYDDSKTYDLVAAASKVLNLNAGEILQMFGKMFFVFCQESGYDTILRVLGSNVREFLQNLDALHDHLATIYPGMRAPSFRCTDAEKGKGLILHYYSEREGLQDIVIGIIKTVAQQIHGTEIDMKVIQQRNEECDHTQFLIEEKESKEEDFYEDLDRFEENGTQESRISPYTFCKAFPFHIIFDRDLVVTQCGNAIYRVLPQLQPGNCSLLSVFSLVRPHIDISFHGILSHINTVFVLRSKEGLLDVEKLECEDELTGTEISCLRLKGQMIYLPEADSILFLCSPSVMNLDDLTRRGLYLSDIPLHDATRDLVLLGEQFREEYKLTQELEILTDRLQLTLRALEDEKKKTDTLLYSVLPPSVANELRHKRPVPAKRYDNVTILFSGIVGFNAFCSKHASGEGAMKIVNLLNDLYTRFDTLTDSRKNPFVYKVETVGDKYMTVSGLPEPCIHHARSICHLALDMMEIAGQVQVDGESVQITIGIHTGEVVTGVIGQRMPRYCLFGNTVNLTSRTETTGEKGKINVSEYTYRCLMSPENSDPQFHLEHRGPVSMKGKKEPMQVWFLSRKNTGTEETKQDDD
measured_quantity: pEC50
Numbers only, as −log10 of the molar value.

Reference set (5 entries):
1. Cc1cccc(-c2csc(N3CC[C@@]4(C(=O)O)C[C@H]4C3)n2)c1OCc1ccc2c(c1C)CCN(CC1COCCO1)C2 (stereo partly shown): 8.70
2. CCO[C@H]1CN(c2nc(-c3cccc(C)c3OCc3cc4c(c(OC)c3)CN(C3CCOCC3)CC4)cs2)CC[C@H]1C(=O)O: 6.48
3. CCO[C@@H]1CN(c2cccc(-c3cc(C)ccc3OCc3ccc4c(c3C)CCN(C3CCOCC3)CC4)n2)CC[C@@H]1C(=O)O: 8.30
4. Cc1ccc(OCc2cc(C)c3c(c2)CCN(C2CCOCC2)C3)c(-c2csc(N3CC[C@@]4(C(=O)O)C[C@H]4C3)n2)c1: 8.00
5. Cc1ccc(OCc2ccc3c(c2C)CCN(C2CCOCC2)C3)c(-c2cccc(N3CC[C@@]4(C(=O)O)C[C@H]4C3)n2)c1: 8.70

// each listed compound needs a value for pEC50
1. Cc1ccc(OCc2ccc3c(c2C)CCN(C2COC2)C3)c(-c2cccc(N3C[C@@H]4C[C@]4(C(=O)O)C3)n2)c1
2. Cc1cccc(-c2cccc(N3CC[C@@]4(C(=O)O)C[C@H]4C3)n2)c1OCc1ccc2c(c1)CCN(C1CCOCC1)C2
3. COC[C@H]1N(c2cccc(-c3cccc(C)c3OCc3ccc4c(c3C)CN(C3CCOCC3)C4)n2)C[C@@H]2C[C@@]21C(=O)O
4. Cc1ccc(OCc2cc(C)c3c(c2)CCN(C2CCOC2)C3)c(-c2csc(N3CC[C@@]4(C(=O)O)C[C@H]4C3)n2)c1 (mixture of isomers)
5. CO[C@@H]1CN(c2nc(-c3cccc(C)c3OCc3cc(C)c4c(c3)CCN(CC3COCCO3)C4)cs2)CC[C@@H]1C(=O)O (stereo partly shown) [Compound 176]
6. CO[C@H]1CN(c2cccc(-c3cccc(C)c3OCc3ccc4c(c3C)CCN(C3CCOCC3)C4)n2)CC[C@H]1C(=O)O
7. Cc1cccc(-c2csc(N3CC[C@@]4(C(=O)O)C[C@H]4C3)n2)c1OCc1ccc2c(c1)CCN(C1CCOCC1)C2
8. CO[C@H]1CN(c2nc(-c3cccc(C)c3OCc3ccc4c(c3C)CCN(C3COC3)C4)cs2)CC[C@H]1C(=O)O

Given back:
[6.92, 8.22, 7.64, 7.96, 7.19, 7.54, 7.57, 7.77]

* * *

experiment: physchem; settings: pH 4.5, aqueous buffer, kinetic from dmso stock, Solubility (pH 4.5)
Kindly note that classification relies on solubility at 24 h with these boundaries: 0 = under 80 µg/mL, 1 = from 80 µg/mL up to 100 µg/mL, 2 = 100 µg/mL and over

1. CCc1cc(COc2c(C)cccc2-c2cccc(N3C[C@@H]4C[C@]4(C(=O)O)[C@H]3COC)n2)cc2c1CN(CC1COCCO1)CC2 (stereo partly shown): 2

Asked: Returns: class label. Input: `Cc1cccc(-c2cccc(N3CC[C@@]4(C(=O)O)C[C@H]4C3)n2)c1OCc1ccc2c(c1)CCN(C1CCOCC1)C2`
Given back: 2

* * *

molecular target: human soluble guanylate cyclase alpha 1 and beta 1 subunits (sGC) (Homo sapiens (Human), UniProt Q02108+Q02153); assay: sGC cellular activator assay (cGMP, HTRF), in the presence and absence of 50% human serum; format: cell-based; settings: CHO cells stably expressing human sGC alpha 1/beta 1, preincubated with 40 microM ODQ; cGMP by HTRF; Table 2 does not state whether with or without 50% human serum
measured_quantity: EC50 (nM)
Answers are plain numbers, in nM.

Reference set (3 entries):
1) Cc1cc(COc2c(C)cccc2-c2csc(N3CC[C@@]4(C(=O)O)C[C@H]4C3)n2)cc2c1CN(C1CCOCC1)CC2: 2
2) CCO[C@@H]1CN(c2nccc(-c3cccc(C)c3OCc3cc4c(c(OC)c3)CN(C3CCOCC3)CC4)n2)CC[C@@H]1C(=O)O: 578
3) COC[C@H]1N(c2cccc(-c3cccc(C)c3OCc3cnc4c(c3)CCN(C3CCOCC3)CC4)n2)C[C@@H]2C[C@@]21C(=O)O: 245

Next:
Asked: What does the data say about its EC50? Entry: `CO[C@@H]1CN(c2cccc(-c3cccc(C)c3OCc3ccc4c(c3C)CCN(C3COC3)CC4)n2)CC[C@H]1C(=O)O`
Given back: 228
